Assignment: determine reported bioluminescence for the given molecules.
- Test system: LEGO organoid PTCC (PTEN-/-; TP53-/-; CDKN2A-/-; CDKN2B-/-)
- testProtocol: bioluminescence (viable cell) signal fold change after vs before treatment, normalised to DMSO (ratio); higher = more tumour cell growth / less inhibition
- runParameters: 10 µM; treatment time 6 days
Write the number on its own, no unit after it.

query: Please give the documented bioluminescence of COC(=O)N[C@H](C(=O)N[C@@H](Cc1ccccc1)[C@@H](O)CN(Cc1ccc(-c2ccccn2)cc1)NC(=O)[C@@H](NC(=O)OC)C(C)(C)C)C(C)(C)C.O=S(=O)(O)O [Atazanavir sulfate]
result: 0.573

query: Please give the documented bioluminescence of Cc1ccc(Nc2nccc(N(C)c3ccc4c(C)n(C)nc4c3)n2)cc1S(N)(=O)=O.Cl [Pazopanib HCl]
result: 1.41

query: Please give the documented bioluminescence of CCOC(=O)C1=C(C)NC(C)=C(C(=O)OC)C1c1cccc(Cl)c1Cl (centres undefined)
result: 1.16

query: Please give the documented bioluminescence of C[C@@H](Oc1cc(-c2cnn(C3CCNCC3)c2)cnc1N)c1c(Cl)ccc(F)c1Cl
result: 0.43

----------
- Tested on: LEGO organoid PTN (PTEN-/-; TP53-/-; NF1-/-)
- testProtocol: bioluminescence (viable cell) signal fold change after vs before treatment, normalised to DMSO (ratio); higher = more tumour cell growth / less inhibition
- runParameters: 10 µM; treatment time 6 days
Assignment: determine reported bioluminescence for the given molecules.
Write the number on its own, no unit after it.

query: Report value only: bioluminescence, LEGO organoid PTN (PTEN-/-; TP53-/-; NF1-/-), Nc1nc2ccc(OC(F)(F)F)cc2s1
result: 1.01

query: Report value only: bioluminescence, LEGO organoid PTN (PTEN-/-; TP53-/-; NF1-/-), O=C(O)c1cc(/N=N/c2ccc(S(=O)(=O)Nc3ccccn3)cc2)ccc1O
result: 0.504

query: Report value only: bioluminescence, LEGO organoid PTN (PTEN-/-; TP53-/-; NF1-/-), Cc1cc(C)cc(OCC2CNC(=O)O2)c1 (stereo not given)
result: 1.62

query: Report value only: bioluminescence, LEGO organoid PTN (PTEN-/-; TP53-/-; NF1-/-), CC(C)NCC(O)COc1cccc2ccccc12.Cl (stereo not given) [Propranolol hydrochloride]
result: 1.25

query: Report value only: bioluminescence, LEGO organoid PTN (PTEN-/-; TP53-/-; NF1-/-), CCc1nc(N)nc(N)c1-c1ccc(Cl)cc1
result: 0.803

----------
- Tested on: LEGO organoid PTN (PTEN-/-; TP53-/-; NF1-/-)
- testProtocol: bioluminescence (viable cell) signal fold change after vs before treatment, normalised to DMSO (ratio); higher = more tumour cell growth / less inhibition
- runParameters: 10 µM; treatment time 6 days
readoutType: bioluminescence
Write the number on its own, no unit after it.

query: Report value only: bioluminescence, LEGO organoid PTN (PTEN-/-; TP53-/-; NF1-/-), CN(C)CCc1c[nH]c2ccc(CS(=O)(=O)N3CCCC3)cc12.O=C(O)CC(O)C(=O)O [Almotriptan Malate]
result: 0.959

query: Report value only: bioluminescence, LEGO organoid PTN (PTEN-/-; TP53-/-; NF1-/-), CO/N=C(\C(=O)N[C@@H]1C(=O)N2C(C(=O)[O-])=C(CSc3nc(=O)c([O-])nn3C)CS[C@H]12)c1csc(N)n1.CO/N=C(\C(=O)N[C@@H]1C(=O)N2C(C(=O)[O-])=C(CSc3nc(=O)c([O-])nn3C)CS[C@H]12)c1csc(N)n1.O.O.O.O.O.O.O.[Na+].[Na+].[Na+].[Na+] [Ceftriaxone sodium]
result: 2.01

----------
- Tested on: LEGO organoid PT (PTEN-/-; TP53-/-)
- testProtocol: bioluminescence (viable cell) signal fold change after vs before treatment, normalised to DMSO (ratio); higher = more tumour cell growth / less inhibition
- runParameters: 10 µM; treatment time 6 days
Assignment: determine reported bioluminescence for the given molecules.

query: Please give the documented bioluminescence of S=c1nc[nH]c2nc[nH]c12 [Mercaptopurine]
result: 4.23

query: Please give the documented bioluminescence of CCCCCCCCc1ccc(CCC(N)(CO)CO)cc1.Cl [Fingolimod hydrochloride]
result: 1.07

query: Please give the documented bioluminescence of NC(=O)c1cnccn1 [Pyrazinamide]
result: 0.603

query: Please give the documented bioluminescence of COc1cc(C(=O)NCc2ccc(OCCN(C)C)cc2)cc(OC)c1OC.Cl [Trimethobenzamide hydrochloride]
result: 1.11

query: Please give the documented bioluminescence of Cl.Clc1cccc(Cl)c1NC1=NCCN1 [Clonidine hydrochloride]
result: 1.1

query: Please give the documented bioluminescence of Cl.NC12CC3CC(CC(C3)C1)C2 [Amantadine hydrochloride]
result: 0.852

query: Please give the documented bioluminescence of C[C@]12CC[C@@H]3c4ccc(O)cc4CC[C@H]3[C@@H]1CC[C@@H]2O [Estradiol]
result: 0.389

query: Please give the documented bioluminescence of CCC(CC)O[C@@H]1C=C(C(=O)O)C[C@H](N)[C@H]1NC(C)=O [Oseltamivir acid]
result: 0.803

query: Please give the documented bioluminescence of CCCOc1ccc(S(=O)(=O)NCCC2CCCN2C)cc1-c1nc2c(CCC)nn(C)c2c(=O)[nH]1 (centres undefined) [Udenafil]
result: 1.36

----------
- System: LEGO organoid PTCC (PTEN-/-; TP53-/-; CDKN2A-/-; CDKN2B-/-)
- testProtocol: bioluminescence (viable cell) signal fold change after vs before treatment, normalised to DMSO (ratio); higher = more tumour cell growth / less inhibition
- runParameters: 10 µM; treatment time 6 days
readoutType: bioluminescence
Write the number on its own, no unit after it.

query: Please give the documented bioluminescence of CCCCN1CCCCC1C(=O)Nc1c(C)cccc1C.Cl (stereo not given) [Bupivacaine hydrochloride]
result: 1.22

query: Please give the documented bioluminescence of N=C(N)NCCCC[C@@H]1NC(=O)CCSSC[C@@H](C(N)=O)NC(=O)[C@@H]2CCCN2C(=O)[C@H](Cc2c[nH]c3ccccc23)NC(=O)[C@H](CC(=O)O)NC(=O)CNC1=O [Eptifibatide]
result: 0.768

query: Please give the documented bioluminescence of C#Cc1cccc(Nc2ncnc3cc(OCCOC)c(OCCOC)cc23)c1.Cl [Erlotinib hydrochloride]
result: 1.66

query: Please give the documented bioluminescence of Nc1ccn([C@@H]2O[C@H](CO)[C@@H](O)[C@@H]2O)c(=O)n1
result: 1.15

query: Please give the documented bioluminescence of C[C@@H](c1ncncc1F)[C@](O)(Cn1cncn1)c1ccc(F)cc1F
result: 0.587

query: Please give the documented bioluminescence of C#CCN[C@@H]1CCc2ccccc21.CS(=O)(=O)O [Rasagiline Mesylate]
result: 2.02

query: Please give the documented bioluminescence of NC(=O)N1c2ccccc2C=Cc2ccccc21 [Carbamazepine]
result: 0.95

query: Please give the documented bioluminescence of CO/N=C(\C(=O)N[C@@H]1C(=O)N2C(C(=O)[O-])=C(C[N+]3(C)CCCC3)CS[C@H]12)c1csc(N)n1.Cl.Cl.O [Cefepime Dihydrochloride Monohydrate]
result: 0.833

query: Please give the documented bioluminescence of Cc1cc(NS(=O)(=O)c2ccc(N)cc2)no1
result: 1.56

query: Please give the documented bioluminescence of CCc1nn(CCCN2CCN(c3cccc(Cl)c3)CC2)c(=O)n1CCOc1ccccc1.Cl [Nefazodone hydrochloride]
result: 1.12

query: Please give the documented bioluminescence of COC(=O)C1=C(C)NC(C)=C(C(=O)OCCN(C)Cc2ccccc2)C1c1cccc([N+](=O)[O-])c1.Cl (stereo not given) [Nicardipine hydrochloride]
result: 1.19

query: Please give the documented bioluminescence of CC/C(=C(\c1ccccc1)c1ccc(OCCN(C)C)cc1)c1ccccc1
result: 0.468

query: Please give the documented bioluminescence of CNCCCC1c2ccccc2C=Cc2ccccc21.Cl [Protriptyline hydrochloride]
result: 0.571

query: Please give the documented bioluminescence of Cl.O=C1CC2(CCCC2)CC(=O)N1CCCCN1CCN(c2ncccn2)CC1 [Buspirone hydrochloride]
result: 1.47

query: Please give the documented bioluminescence of CC(C)c1nc(CN(C)C(=O)N[C@H](C(=O)N[C@@H](Cc2ccccc2)C[C@H](O)[C@H](Cc2ccccc2)NC(=O)OCc2cncs2)C(C)C)cs1
result: 2

----------
- Tested on: LEGO organoid PTN (PTEN-/-; TP53-/-; NF1-/-)
- testProtocol: bioluminescence (viable cell) signal fold change after vs before treatment, normalised to DMSO (ratio); higher = more tumour cell growth / less inhibition
- runParameters: 10 µM; treatment time 6 days
Threshold check on bioluminescence: at or above 2 gives satisfied, strictly below gives not satisfied.

query: I'd appreciate it if you could say whether CN(C/C=C/C#CC(C)(C)C)Cc1cccc2ccccc12 has bioluminescence at least equal to 2.
result: satisfied

query: I'd appreciate it if you could say whether NC(CO)(CO)CO.O=C(c1ccccc1)c1ccc2n1CCC2C(=O)O (stereo not given) [Ketorolac tromethamine salt] has bioluminescence at least equal to 2.
result: satisfied

query: I'd appreciate it if you could say whether C[N+](C)(C)CCO.[Cl-] [Choline chloride] has bioluminescence at least equal to 2.
result: satisfied

query: I'd appreciate it if you could say whether CCC(=O)NCC[C@@H]1CCc2ccc3c(c21)CCO3 has bioluminescence at least equal to 2.
result: satisfied

query: I'd appreciate it if you could say whether S=c1nc[nH]c2nc[nH]c12 has bioluminescence at least equal to 2.
result: not satisfied
